molecular target: Nuclear receptor coactivator 2 (Homo sapiens); experiment: SRC2 coactivator transcriptional activity inhibitors, confirmation, cell-based, luminescence, HEK293, triplicate (AID 652008); conditions: HEK293 GAL4-SRC2 luciferase reporter, at 8.9 µM
The source made the active and inactive calls.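 How the source made its calls: active means mean inhibition above 46.5%, the solvent-only control mean plus 3 SD; inactive means the rest.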
Outcome codes: TRUE (active), FALSE (inactive)

[
  {
    "compound": "Cc1sc(NC(=O)CSc2nnnn2C(C)C)c(C#N)c1C",
    "assignedCategory": "FALSE"
  },
  {
    "compound": "O=C(COC(=O)c1cc(S(=O)(=O)N2CCOCC2)ccc1F)NCc1ccc2c(c1)OCO2",
    "assignedCategory": "FALSE"
  },
  {
    "compound": "Cc1ccc(Cn2ccc(=O)c(OCc3c(Cl)cccc3Cl)c2C)cc1",
    "assignedCategory": "FALSE"
  },
  {
    "compound": "O=C(Nc1ccc(OCc2ccccc2Cl)cc1)c1cccnc1",
    "assignedCategory": "TRUE"
  },
  {
    "compound": "O=C1C=CC(=C(c2ccc(O)cc2)c2ccc(O)cc2)C=C1",
    "assignedCategory": "FALSE"
  },
  {
    "compound": "Cc1cc(C(=O)COc2cccnc2[N+](=O)[O-])c(C)n1-c1ccccc1",
    "assignedCategory": "TRUE"
  },
  {
    "compound": "Brc1ccc2ncnc(Nc3ccc(N4CCOCC4)cc3)c2c1",
    "assignedCategory": "FALSE"
  },
  {
    "compound": "CCOC(=O)C(=Cc1ccc(-n2cncn2)cc1)C(=O)OCC",
    "assignedCategory": "FALSE"
  },
  {
    "compound": "Cc1ccc(C(=O)c2cnc3ccccc3c2-c2ccccc2)cc1",
    "assignedCategory": "FALSE"
  },
  {
    "compound": "CC(C)CCCCCCCCCCCCC(=O)NCC(=O)NC1C(C)OC(Nc2ncnc3nc[nH]c23)C(O)C1O (configuration not stated)",
    "assignedCategory": "TRUE"
  },
  {
    "compound": "O=C(OCc1ccccc1)c1ccc(NCc2cc(O)ccc2O)cc1",
    "assignedCategory": "TRUE"
  },
  {
    "compound": "COc1ccc(C(=O)CN2C(=O)c3ccccc3S2(=O)=O)cc1",
    "assignedCategory": "TRUE"
  },
  {
    "compound": "CC1CCc2nc(NC(=O)C3COc4ccccc4O3)sc2C1 (configuration not stated)",
    "assignedCategory": "FALSE"
  },
  {
    "compound": "C[C@@H]1CCN(C2CC2)S(=O)(=O)c2ccc(N3CCC[C@H]3C)cc2O1",
    "assignedCategory": "FALSE"
  },
  {
    "compound": "COc1ccccc1-c1cn[nH]c1-c1ccc(O)cc1O",
    "assignedCategory": "FALSE"
  },
  {
    "compound": "CCOc1cc(/C=C/C(=O)c2ccc3c(c2)OCCO3)ccc1OCC(=O)N(C)C",
    "assignedCategory": "FALSE"
  },
  {
    "compound": "COC(=O)COc1ccc(S(=O)(=O)Nc2ccc3c(c2)OCCO3)cc1C",
    "assignedCategory": "FALSE"
  },
  {
    "compound": "Cc1ccc(CN2CCC(C(=O)Nc3ccc(Oc4cccnc4)cc3)CC2)cc1",
    "assignedCategory": "FALSE"
  },
  {
    "compound": "CC(=O)CC[C@@H]1CC[C@]2(CCCN(S(C)(=O)=O)C2)O1",
    "assignedCategory": "FALSE"
  },
  {
    "compound": "COc1ccc(N2CCN(C(=O)CCCCCn3c(=S)[nH]c4ccc(N5CCOCC5)cc4c3=O)CC2)cc1",
    "assignedCategory": "FALSE"
  },
  {
    "compound": "Cc1cc(F)ccc1NC(=O)CCc1c(C)nn(-c2ccc(N3CCCCC3)nn2)c1C",
    "assignedCategory": "FALSE"
  },
  {
    "compound": "COc1ccc2ccc(O)c(CN3CCN(S(=O)(=O)c4cccc(C(F)(F)F)c4)CC3)c2c1",
    "assignedCategory": "FALSE"
  }
]

The reported measurements were obtained from PubChem BioAssay.
